Target: HiBit-BRM fusion protein (Homo sapiens)
Construct: expressed in transfected cells
Experiment: HiBiT-BRM cell-based degradation assay (Nano-Glo HiBiT Lytic Detection, 24 h)
Details: HeLa cell line expressing HiBiT-BRM, read-out: BRM HiBit Degradation IC50
Outcome Measure: DC50

Use these answered entries as a reference point.
Name the recorded DC50 for Cc1ncsc1-c1ccc([C@H](C)NC(=O)[C@@H]2C[C@@H](O)CN2C(=O)[C@@H](c2cc(OCCN3CC(CCc4[nH]c5nnc(-c6ccccc6O)cc5c4C)C3)no2)C(C)C)cc1 (single isomer, unassigned) .
> 100 nM

Which DC50 is reported for this compound? Cc1ncsc1-c1ccc([C@H](C)NC(=O)[C@@H]2C[C@@H](O)CN2C(=O)C(c2cc(C3CCN(C(=O)[C@H]4CCc5[nH]c6nnc(-c7ccccc7O)cc6c5C4)CC3)no2)C(C)C)cc1 (single isomer, unassigned)
> 10 nM

May I ask what DC50 has been recorded for Cc1ncsc1-c1ccc([C@H](C)NC(=O)[C@@H]2C[C@@H](O)CN2C(=O)[C@@H](c2cc(CCCN3CC(c4cc5cc(-c6ccccc6O)nnc5[nH]4)C3)no2)C(C)C)cc1 (single isomer, unassigned) ?
> 100 nM

Could you share which DC50 value was measured for Cc1ncsc1-c1ccc([C@H](C)NC(=O)[C@@H]2C[C@@H](O)CN2C(=O)[C@@H](c2cc(N3CCC(CN4CCc5[nH]c6nnc(-c7ccccc7O)cc6c5C4)CC3)no2)C(C)C)cc1 (racemic) ?
> 10 nM

// query DC50 value for entry Cc1ncsc1-c1ccc([C@H](C)NC(=O)[C@@H]2C[C@@H](O)CN2C(=O)[C@@H](c2cc(OCCN3CC(c4[nH]c5nnc(-c6ccccc6O)cc5c4Cl)C3)no2)C(C)C)cc1 (racemic)
> 10 nM

For the compound shown here, Cc1ncsc1-c1ccc([C@H](C)NC(=O)[C@@H]2C[C@@H](O)CN2C(=O)[C@@H](c2cc(OCCN3CCC4(CC3)CC(c3cc5cc(-c6ccccc6O)nnc5[nH]3)C4)no2)C(C)C)cc1 (racemic) , give the reported DC50.
> 10 nM

Returns the measured DC50 for the input compound. Input: Cc1ncsc1-c1ccc([C@H](C)NC(=O)[C@@H]2C[C@@H](O)CN2C(=O)[C@@H](c2cc(N3CCC(CN4CC5(Cc6cc(-c7ccccc7O)nnc6N5)C4)CC3)no2)C(C)C)cc1 (racemic)
> 10 nM

Can you look up the measured DC50 of Cc1ncsc1-c1ccc([C@H](C)NC(=O)[C@@H]2C[C@@H](O)CN2C(=O)[C@@H](c2cc(OCCNC(=O)c3cc4cc(-c5ccccc5O)nnc4[nH]3)no2)C(C)C)cc1 (racemic) for me?
> 100 nM

Below: the item to evaluate.
I am curious: what DC50 value has been reported for Cc1ncsc1-c1ccc([C@H](C)NC(=O)[C@@H]2C[C@@H](O)CN2C(=O)[C@@H](c2cc(OCCN3CCC34CC(c3cc5cc(-c6ccccc6O)nnc5[nH]3)C4)no2)C(C)C)cc1 (mixture of isomers) ?
> 10 nM

---

Answer each item with its documented Dmax.
Target: HiBit-BRG1 fusion protein (Homo sapiens, UniProt P51532)
Construct: expressed in transfected cells
Sequence (P51532 whole entry, the tested form may be a part): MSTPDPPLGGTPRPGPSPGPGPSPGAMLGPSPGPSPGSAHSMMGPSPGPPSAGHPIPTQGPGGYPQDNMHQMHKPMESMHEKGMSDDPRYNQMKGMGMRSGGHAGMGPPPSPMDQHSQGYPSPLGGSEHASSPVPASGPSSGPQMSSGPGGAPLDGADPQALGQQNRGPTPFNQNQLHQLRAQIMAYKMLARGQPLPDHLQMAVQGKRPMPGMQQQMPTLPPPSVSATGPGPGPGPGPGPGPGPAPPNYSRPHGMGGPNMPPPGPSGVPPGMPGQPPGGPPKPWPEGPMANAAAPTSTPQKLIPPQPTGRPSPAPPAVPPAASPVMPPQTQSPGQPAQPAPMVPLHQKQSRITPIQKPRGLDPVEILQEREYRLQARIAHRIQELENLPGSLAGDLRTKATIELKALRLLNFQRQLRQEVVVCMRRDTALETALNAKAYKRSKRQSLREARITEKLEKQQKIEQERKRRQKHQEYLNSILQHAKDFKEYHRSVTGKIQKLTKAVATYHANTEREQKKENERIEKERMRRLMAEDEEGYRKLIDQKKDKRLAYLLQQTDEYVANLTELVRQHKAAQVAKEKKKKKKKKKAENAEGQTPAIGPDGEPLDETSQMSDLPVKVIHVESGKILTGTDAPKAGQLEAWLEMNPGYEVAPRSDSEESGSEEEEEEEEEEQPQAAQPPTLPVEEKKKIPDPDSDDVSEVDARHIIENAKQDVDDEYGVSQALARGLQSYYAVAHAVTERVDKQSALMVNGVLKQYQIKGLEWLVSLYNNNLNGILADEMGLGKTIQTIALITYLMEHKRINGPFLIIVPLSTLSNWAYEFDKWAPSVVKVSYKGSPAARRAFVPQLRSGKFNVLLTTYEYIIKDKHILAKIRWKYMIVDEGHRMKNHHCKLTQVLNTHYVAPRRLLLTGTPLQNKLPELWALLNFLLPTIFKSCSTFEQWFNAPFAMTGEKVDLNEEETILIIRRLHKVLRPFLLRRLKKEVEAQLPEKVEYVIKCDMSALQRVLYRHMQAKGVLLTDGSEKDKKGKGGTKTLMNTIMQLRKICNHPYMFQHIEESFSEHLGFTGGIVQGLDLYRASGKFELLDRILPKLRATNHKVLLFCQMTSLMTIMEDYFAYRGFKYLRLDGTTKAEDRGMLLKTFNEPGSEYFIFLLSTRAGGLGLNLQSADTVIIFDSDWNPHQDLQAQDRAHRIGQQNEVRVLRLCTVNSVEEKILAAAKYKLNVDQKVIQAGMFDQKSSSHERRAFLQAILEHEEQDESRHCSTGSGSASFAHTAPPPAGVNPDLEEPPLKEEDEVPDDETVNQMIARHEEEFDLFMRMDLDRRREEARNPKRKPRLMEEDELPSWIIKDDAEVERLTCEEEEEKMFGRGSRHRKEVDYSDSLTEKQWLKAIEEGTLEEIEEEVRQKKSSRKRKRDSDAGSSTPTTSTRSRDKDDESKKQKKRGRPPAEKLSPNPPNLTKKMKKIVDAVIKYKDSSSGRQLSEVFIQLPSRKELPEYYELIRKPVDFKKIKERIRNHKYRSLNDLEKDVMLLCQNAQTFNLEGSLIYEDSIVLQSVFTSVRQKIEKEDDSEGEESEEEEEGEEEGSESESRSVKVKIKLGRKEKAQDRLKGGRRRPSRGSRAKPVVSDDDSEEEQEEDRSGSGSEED
Assay: HiBiT-BRG1 cell-based degradation assay (Nano-Glo HiBiT Lytic Detection, 24 h)
Details: HeLa cell line expressing HiBit-BRG1 and LgBit, read-out: BRG1 HiBit Degradation Maximum (%)

Provide the documented Dmax with HiBit-BRG1 fusion protein (Homo sapiens, UniProt P51532) as the system for Cc1ncsc1-c1ccc(CNC(=O)[C@@H]2C[C@@H](O)CN2C(=O)[C@@H](NC(=O)CCCCC(=O)N[C@H]2CCc3[nH]c4nnc(-c5ccccc5O)cc4c3C2)C(C)(C)C)cc1 (relative stereo)
< 50%

Recall the recorded Dmax for Cc1ncsc1-c1ccc([C@H](C)NC(=O)[C@@H]2C[C@@H](O)CN2C(=O)[C@@H](c2cc(C3CCN(C(=O)[C@H]4C[C@]5(Cc6cc(-c7ccccc7O)nnc6N5)C4)CC3)no2)C(C)C)cc1 (racemic) with HiBit-BRG1 fusion protein (Homo sapiens, UniProt P51532) and state it.
> 50%

Recorded Dmax for Cc1ncsc1-c1ccc([C@H](C)NC(=O)[C@@H]2C[C@@H](O)CN2C(=O)[C@H](c2cc([C@H]3CC[C@@H](c4cnc(N5CCC(c6c[nH]c7nnc(-c8ccccc8O)cc67)CC5)nc4)CC3)no2)C(C)C)cc1 with HiBit-BRG1 fusion protein (Homo sapiens, UniProt P51532), please?
< 50%

Others:
Give HiBit-BRG1 fusion protein (Homo sapiens, UniProt P51532) Dmax for Cc1ncsc1-c1ccc(CNC(=O)[C@@H]2C[C@@H](O)CN2C(=O)[C@@H](NC(=O)CCCCCCCNCCC(=O)N2CC(c3cc4cc(-c5ccccc5O)nnc4[nH]3)C2)C(C)(C)C)cc1 (racemic)
< 50%

---

Would you kindly list Dmax for each of these molecules?
Target: HiBit-BRG1 fusion protein (Homo sapiens)
Construct: expressed in transfected cells
Test: HiBiT-BRG1 cell-based degradation assay (Nano-Glo HiBiT Lytic Detection, 24 h)
Settings: HeLa cell line expressing HiBit-BRG1 and LgBit, read-out: BRG1 HiBit Degradation Maximum (%)
Description: Procedure: A stable HeLa cell line expressing HiBiT-BRM was generated. On day 0, 5000 cells were seeded in 40 μL of media into each well of 384-well cell culture plates. […] The plates were shaken for 10 minutes at room temperature and the bioluminescence read using an EnVision plate reader (PerkinElmer). […] The degradation % was calculated using the following formula: % degradation=100%−100%×(LumSample−LumLC)/(LumHC−LumLC). […]

Here's what some known entries look like.
Could you share which Dmax value was measured for Cc1ncsc1-c1ccc([C@H](C)NC(=O)[C@@H]2C[C@@H](O)CN2C(=O)[C@@H](c2cc(OCCN3CC(n4c(=O)[nH]c5nnc(-c6ccccc6O)cc54)C3)no2)C(C)C)cc1 (racemic) ?
< 50%

Record request: Dmax value, item Cc1ncsc1-c1ccc([C@H](C)NC(=O)[C@@H]2C[C@@H](O)CN2C(=O)[C@@H](c2cc(OCCN[C@H]3CCc4[nH]c5nnc(-c6ccccc6O)cc5c4C3)no2)C(C)C)cc1 (single isomer, unassigned)
< 50%

Which Dmax is reported for this molecule? O=C1CCC(N2C(=O)c3ccc(OCCOCCOCCC(=O)N4CC(c5cc6cc(-c7ccccc7O)nnc6[nH]5)C4)cc3C2=O)C(=O)N1 (stereo not drawn)
< 50%

Query (molecule): Cc1ncsc1-c1ccc([C@H](C)NC(=O)[C@@H]2C[C@@H](O)CN2C(=O)[C@@H](c2cc(OCCN3C[C@@H]4[C@H](C3)[C@H]4c3cc4cc(-c5ccccc5O)nnc4[nH]3)no2)C(C)C)cc1 (racemic) ; field requested: Dmax
> 75%

Quick one: Dmax for Cc1ncsc1-c1ccc(CNC(=O)[C@@H]2C[C@@H](O)CN2C(=O)[C@@H](NC(=O)CCCN2CC(c3cc4cc(-c5ccccc5O)nnc4[nH]3)C2)C(C)(C)C)cc1 (racemic) ?
< 50%

Given the entry Cc1ncsc1-c1ccc([C@H](C)NC(=O)[C@@H]2C[C@@H](O)CN2C(=O)[C@@H](c2cc(OCCN3CCC(c4cc5cc(-c6ccccc6O)nnc5[nH]4)C3)no2)C(C)C)cc1 (mixture of isomers) , report its measured Dmax.
< 50%

Fill blank: measured Dmax of the molecule Cc1ncsc1-c1ccc([C@H](C)NC(=O)[C@@H]2C[C@@H](O)CN2C(=O)[C@@H](c2cc(N(C)CCN3CC4(Cc5cc(-c6ccccc6O)nnc5N4)C3)no2)C(C)C)cc1 (racemic) is ____.
< 50%

If you can, please state the reported Dmax value of Cc1ncsc1-c1ccc([C@H](C)NC(=O)[C@@H]2C[C@@H](O)CN2C(=O)[C@@H](c2cc(OCCN3CC(c4[nH]c5nnc(-c6ccccc6O)cc5c4C4CC4)C3)no2)C(C)C)cc1 (racemic) .
> 75%

Here is another molecule to look at.
// query Dmax value for entry Cc1ncsc1-c1ccc(CNC(=O)[C@@H]2C[C@@H](O)CN2C(=O)[C@@H](NC(=O)CCCCCCCCCC(=O)N2CC(c3c[nH]c4nnc(-c5ccccc5O)cc34)C2)C(C)(C)C)cc1
< 50%

---

Target: HiBit-BRM fusion protein (Homo sapiens, UniProt P51531)
Construct: expressed in transfected cells
Sequence (P51531 whole entry, the tested form may be a part): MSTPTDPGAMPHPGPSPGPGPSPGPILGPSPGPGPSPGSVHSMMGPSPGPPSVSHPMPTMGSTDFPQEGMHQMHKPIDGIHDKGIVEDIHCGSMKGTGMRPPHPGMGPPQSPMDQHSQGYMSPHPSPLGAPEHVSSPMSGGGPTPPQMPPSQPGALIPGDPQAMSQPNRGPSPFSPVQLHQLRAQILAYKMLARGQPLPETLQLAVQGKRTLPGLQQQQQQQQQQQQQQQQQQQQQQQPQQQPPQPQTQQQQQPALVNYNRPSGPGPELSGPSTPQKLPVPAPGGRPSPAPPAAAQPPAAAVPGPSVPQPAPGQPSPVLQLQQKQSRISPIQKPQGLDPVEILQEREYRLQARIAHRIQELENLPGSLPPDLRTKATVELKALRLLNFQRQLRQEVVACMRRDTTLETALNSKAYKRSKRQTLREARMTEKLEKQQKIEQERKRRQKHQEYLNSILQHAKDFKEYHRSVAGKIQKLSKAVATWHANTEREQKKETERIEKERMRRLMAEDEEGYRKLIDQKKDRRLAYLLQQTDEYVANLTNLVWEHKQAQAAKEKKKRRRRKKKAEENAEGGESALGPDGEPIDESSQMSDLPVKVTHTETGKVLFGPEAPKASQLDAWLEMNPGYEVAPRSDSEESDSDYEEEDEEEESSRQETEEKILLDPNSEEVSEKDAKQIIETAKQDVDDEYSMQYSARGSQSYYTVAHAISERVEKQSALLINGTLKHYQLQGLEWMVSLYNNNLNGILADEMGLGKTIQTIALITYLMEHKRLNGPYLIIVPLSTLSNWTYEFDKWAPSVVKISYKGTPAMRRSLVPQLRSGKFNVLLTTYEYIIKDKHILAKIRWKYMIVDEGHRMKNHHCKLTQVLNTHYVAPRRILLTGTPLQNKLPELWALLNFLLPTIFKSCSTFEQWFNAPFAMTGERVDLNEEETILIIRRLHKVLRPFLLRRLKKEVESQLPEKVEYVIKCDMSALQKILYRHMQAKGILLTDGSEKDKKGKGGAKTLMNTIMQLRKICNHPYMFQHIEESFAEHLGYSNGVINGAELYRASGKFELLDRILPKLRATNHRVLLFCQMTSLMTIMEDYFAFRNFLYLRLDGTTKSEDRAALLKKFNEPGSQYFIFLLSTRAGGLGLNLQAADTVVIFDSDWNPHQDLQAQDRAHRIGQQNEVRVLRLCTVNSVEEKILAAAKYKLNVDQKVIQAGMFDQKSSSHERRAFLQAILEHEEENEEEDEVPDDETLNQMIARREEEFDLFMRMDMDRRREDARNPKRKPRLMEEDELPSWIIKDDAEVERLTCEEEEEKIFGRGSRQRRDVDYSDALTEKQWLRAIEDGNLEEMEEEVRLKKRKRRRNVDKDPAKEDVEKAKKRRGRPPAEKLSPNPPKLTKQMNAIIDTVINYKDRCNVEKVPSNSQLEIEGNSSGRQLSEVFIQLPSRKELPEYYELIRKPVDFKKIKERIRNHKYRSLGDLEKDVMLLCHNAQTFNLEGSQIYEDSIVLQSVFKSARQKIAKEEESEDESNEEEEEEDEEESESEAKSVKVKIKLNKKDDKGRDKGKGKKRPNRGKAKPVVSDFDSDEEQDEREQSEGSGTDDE
Assay: HiBiT-BRM cell-based degradation assay (Nano-Glo HiBiT Lytic Detection, 24 h)
Conditions: HeLa cell line expressing HiBiT-BRM, read-out: BRM HiBit Degradation IC50
Method: Procedure: A stable HeLa cell line expressing HiBiT-BRM was generated. On day 0, 5000 cells were seeded in 40 μL of media into each well of 384-well cell culture plates. […] The plates were shaken for 10 minutes at room temperature and the bioluminescence read using an EnVision plate reader (PerkinElmer). The degradation % was calculated using the following formula: % degradation=100%−100%×(LumSample−LumLC)/(LumHC−LumLC). […]
Task for the reader: assign each of the following compounds its reported DC50.

Could you tell me which DC50 is on file for Cc1ncsc1-c1ccc(CNC(=O)[C@@H]2C[C@@H](O)CN2C(=O)[C@@H](NC(=O)CCCNC(=O)[C@@H]2CCc3[nH]c4nnc(-c5ccccc5O)cc4c3C2)C(C)(C)C)cc1 (single isomer, unassigned) ?
> 0.1 µM

Parameter requested: DC50. Apply to each item below.
1. Cc1ncsc1-c1ccc([C@H](C)NC(=O)[C@@H]2C[C@@H](O)CN2C(=O)[C@@H](c2cc(N3CCN(CCN4CC(c5cc6cc(-c7ccccc7O)nnc6[nH]5)C4)CC3)no2)C(C)C)cc1 (racemic)
2. Cc1ncsc1-c1ccc([C@H](C)NC(=O)[C@@H]2C[C@@H](O)CN2C(=O)[C@@H](c2cc([C@H]3CC[C@@H](c4cnc(N5CCC(c6c[nH]c7nnc(-c8ccccc8O)cc67)CC5)nc4)CC3)no2)C(C)C)cc1 (racemic)
3. Cc1ncsc1-c1ccc([C@H](C)NC(=O)[C@@H]2C[C@@H](O)CN2C(=O)[C@@H](c2cc(N3CCC(CN4CCc5[nH]c6nnc(-c7ccccc7O)cc6c5[C@H]4C)CC3)no2)C(C)C)cc1 (racemic)

> 0.1 µM
> 0.01 µM
> 0.01 µM
